B1: TPR t1 (parent)
chain: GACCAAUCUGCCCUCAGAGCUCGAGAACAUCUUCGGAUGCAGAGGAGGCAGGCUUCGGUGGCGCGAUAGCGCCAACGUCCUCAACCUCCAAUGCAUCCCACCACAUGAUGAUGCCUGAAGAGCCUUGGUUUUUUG

variants of: B1; assay: polymerase ribozyme fitness, log enrichment relative to wild type (log ratio); higher = more active; in vitro selection for triplet polymerase activity
// reported polymerase ribozyme fitness (log ratio) for each item listed

MACROMOLECULE SEQUENCE	polymerase ribozyme fitness (log ratio)
GACCAAUCUGUCCUCAGAGCUCGAGAACAUCUUCGGAUGCAGAGGAGGCAGGCUUCGGUGGCGCGAUAGCGCCAACGUCCUCAACCUCCAAUGCAUCCCACCACAUGAUGAUGCCUGAAGAGCCUUGAUUUUUUG	-2.45
GACCAAUCUGCCCUCAGAGCUCGAGAACAUCUUCGGAUGCAGAGGAGGGAGGCUUGGGUGGCGCGAUAGCGCCAACGUCCUCAACCUCCAAUGCAUCCCACCACAUGAUGAUGCCUGAAGAGCCUUGGUUUUUUG	-2.98
GACCAAUCUGCACUCAGAGAUCGAGAACAUCUUCGGAUGCAGAGGAGGCAGGCUUCGGUGGCACGAUAGCGCCAACGUCCUCAACCACCAAUGCAUCCCACCACAUGAUGAUGCCUGAAGAUCCUUGGUUUUUUG	-4.81
GACCAAUCUGCCCUCAGAGCUCGAGAACAUCUUCGGAUGCAGAGGAGGCAGGCUUCGGUGGCGCGAUAUCGCCAACGUCCUCAACCUCCAAUGCAUCCCACCACAUGAUGAUGCCUGAAUAGCCUUGGUUUUUUG	1.02
GACCAAUCUGCCCUCAGAGCUCGAGAACAUCUUCGGAUGCAGAGGAGGCAGGCUCUGGUGGCGCGAUAGCGCCAACGUCCUCAACCUCCAAUGCAUCCCACCACAUGAUGAUGCCUGAAGAGCCUUGGUUUUUUG	0.598
GACCAAUCUGCCCUCAGAGCUCGAGAACAUCUUCCGAUGCAGAGGAGGCAGGCUUCGGUGGCGCGAUAGCGCCAACGUCCUCAACCUCCAAUGCUUCCUACCAAAUGAUGCUGCCUGAAGAGCCUUGGUUUUUUG	-6.57
GAACAAUCUGCCCUCAGAGCUCGAGAACAUCUUCGGAUGGAGAGGAGGCAGGCUUCGGUGGCGCGAUAGCGCCAACGUCCUCAACCUCCAAUGCAUCCCACCACAUGAUGAUGCCUGAAGAGCCUUGGUUUUUUG	-2.2
GACCAAUCUGCCCUCAGAGCUCGAGAACAUCUUCGGAUACAGAGGAGGCAGGUUUCGGUGCCGCGAUAGCGCCAACGUCCUCAUCCUCCAAUGCAUCCCACCACAUGAUGAUGCCUGAAGAGCCUUCGUUUUUUG	-2.2
GACCAAUCUGCCCUCAGAGCUCGAGAACAUCUUCGGAUGCAGAGGAGGCAGGCUUCGGUAGCGCGAUAGCGCCAACGUCCUUAAGCUCCAAUGCAUCCCACCACAUGAUGAUGCCUGAAGAGCCUUGGAUUUUUG	-3
GACCAAUCUGCCCUCAGAGCUCGAGAACAUCUUCGGAUGCAGAGGAGGCAGGCUUCGGUGGCGCGAUAGCGCCCACGUCCUCAACCUCCAAUGCAUCCCACCACAUGAUCAUGCCUGAAGAGCCUUGGUUUUUUG	-4.36
GACCAAUCUGCCCUUAGAGCUCGAGAACAUCUUCGGAUGCAGAGGAGGCAGGCUUCGGUGGCGCGAUAGCGCCAACGUCCUCAACCUCCAAUGCGUCCCACCACAUGAUGAUGGCUGAAGAGCCUUGGUUUUUUG	-4.48
GACCAAUCUGCCCUCAGAGCUCGAGAACAUCUUCGGAUGCAGAGGAGGCAGGCUUCGGUGGUGCGAUAGCGCCAACGUCCUCAACCUCCAAUGCAUCCCACCACAUGAUGAGGCAUGAAGAGCCUGGGUUUUUUG	-2.54
GACCAAUCUGCCCUCAGAGCUCGAGAACAUCUUCGGAUGCAGAGGAGGCAGCCUUCGGUGGCGCGAUAGCGCCAACGUCCUCAACCUCCAAUGCAUCCCACCACAUGAUGAUGCCCGAAGAGCCUUGGUUUUUUG	-1.72
GACCACUCUGCCCUCAGAGCUCGAGAACAUCUUCGGAUGCAGAGGAGGCAGGCUUCGGUGGCGCGAUAGCGCCAACGUCCUCAACCUCCAAUGCAUCCCACCACAUGAUGAUGCCUUAAGAGCCUAGGUUCUUUG	-6.38
GACCAAUCUUCCCUCAGAGCUCGAGAACAUCUUCGGAUGCAGAGGAGGCAGGCUUCGGUGUCGCGAUAGCGCCAACGUCCUCAACCUCCAAUGCAUCCCACCACAUGAUGAUGCCUGAAGAGCCUUGGUUUUUUG	0.128
GACCAAUCUGCCCUCAGAGCUCGAGAACAUCUUCGGAUGCAGAGGAGGCAGGCUUCGGUGGCGCGAUAGCGCCAACGUCCUCAACCUCCAAUGCAUCCCACCACAUGAUGAUGCUUGUAGAGCCUUGGUUUUUUG	-1.41
GACCAAUCUGCCCUCAGAGCUCGAGAACAUCCUCGGAUGCAGAGGAGGCAGGCUUCGGUGGCACGAUAGCGCCUACGUCCUCAACCUCCAAUGCAUCCCACCACAUGAUGAUGCCUGAAGAGCCUUGGUUUUUUG	-3.86
GACCAAUCUGCCCUCAGAGCUCGAGAACAUCUUCGGAUGCAGAGGAGGCAGGCUUCGGUGGCACGGUAGCGCCAACGUCCUCAACCUCCAAUGCAUCCCACCACAUGAUGAUGCCUGAAGAGCCUUGGUUUUUUG	-1.9
GACCAAUCUGCCCUCAGAGCUCGAGAACAUCUUCGGAUGCAGAGGAGGUAGGCUUCGGUGGCGCGAUAGCGCCAACGUCCUCAACCUCCAAUGCAUCCCACCACAUGAUGAUGCCUGAACAGGCUUGGUUUUUUG	-0.212
GAGCAAUCUGCCCUCAGAGCUCGAGAACAUCUUCGGAUGCAGAGGAGGCAGGCUUCGGUGGCGCGAUAGCGCCAACGUCCCCAACCUCCAAUGCAUCCCACCACAUGAUGCUGCCUGAAGAGCCUUGAUUUUGUG	-4.61
GACCAAUCUGCCCUCAGAGCUCGAGAACAUCUUCGGAUGCAGAGGAGGCAGGCUUCGGUGGCCCGAUAGCGCCAACGUCCUCAACCUCCAAUGCAUCCCACCACAUGAUGAUGCCUGAACAGCCUUGGUUAUUUG	0.5
